experiment: Half life period in human blood serum was determined at 37 degrees Centigrade; assay type: ADME, Plasma

| MOLECULE | half-life |
| --- | --- |
| Nc1nc2c(ncn2C2C=CC(OCP(=O)(O)OP(=O)(O)OP(=O)(O)OP(=O)(O)COC3C=CC(n4cnc5c(=O)[nH]c(N)nc54)C3)C2)c(=O)[nH]1 (centres undefined) | 180 min |
| Nc1nc2c(ncn2C2C=CC(OCP(=O)(O)OP(=O)(O)C(F)(F)P(=O)(O)O)C2)c(=O)[nH]1 (centres undefined) | 420 min |
| Nc1nc(O)c2ncn(C3C=CC(OCP(=O)(O)OP(=O)(O)C(F)(F)P(=O)(O)OP(=O)(O)COC4C=CC(n5cnc6c(O)nc(N)nc65)C4)C3)c2n1 (centres undefined) | 180 min |
| Nc1nc2c(ncn2[C@H]2C[C@H](O)[C@@H](COP(=O)(O)OP(=O)(O)OP(=O)(O)O)O2)c(=O)[nH]1 [DEOXYGUANOSINE TRIPHOSPHATE] | 18 min |
